# assay-procedure: λmax of the long-wave absorption band of the dye
# Format: physicochemical
# condition-parameters: Table 1 / Examples; several values = several maxima
Returns 1 if the recorded λmax is greater than or equal to 500 nm, and -1 otherwise.

Here's what some known entries look like.
molecule: CCCCc1ccc(C(=O)Nc2cc(CCCC)c(OC(=O)c3ccc(CCCC)cc3)c3c2C(=O)c2c(NC(=O)c4ccc(CCCC)cc4)cc(CCCC)c(OC(=O)c4ccc(CCCC)cc4)c2C3=O)cc1 [Compound 6]
assigned-label: -1
--
molecule: CCCCc1cc(NC(=O)C2CCC(CCCC)CC2)c2c(c1OC(=O)c1ccc(C3CCC(CCCC)CC3)cc1)C(=O)c1c(OC(=O)c3ccc(C4CCC(CCCC)CC4)cc3)c(CCCC)cc(NC(=O)C3CCC(CCCC)CC3)c1C2=O (centres unmarked) [Compound 10]
assigned-label: -1
--
molecule: CCCCCCC1CCC(C(=O)Nc2ccc(OC(=O)C3CCC(CCCCCC)CC3)c3c2C(=O)c2c(NC(=O)C4CCC(CCCCCC)CC4)cc(C)c(OC(=O)C4CCC(CCCCCC)CC4)c2C3=O)CC1 (centres unmarked) [Compound 5]
assigned-label: -1
--
molecule: CCCCCC1CCC(c2ccc(C(=O)Nc3cc(CCCC)c(O)c4c3C(=O)c3c(NC(=O)c5ccc(C6CCC(CCCCC)CC6)cc5)cc(CCCC)c(OC(=O)CCC)c3C4=O)cc2)CC1 (centres unmarked) [Compound 22]
assigned-label: 1

Answer whether λmax of CCCCc1cc(NC(=O)c2ccc(C3CCC(CCCC)CC3)cc2)c2c(c1O)C(=O)c1c(OC(=O)CCC)c(CCCC)cc(NC(=O)c3ccc(C4CCC(CCCC)CC4)cc3)c1C2=O (centres unmarked) [Compound 23] is greater than or equal to 500 nm.
1
